- Target of assay: T1, human parathyroid hormone receptor (PTHR) (human, UniProt Q03431 27-593)
- T1 construct: Assayed in membranes of HKRK-B7 cells or of transiently transfected COS-7 cells, or on intact HKRK-B7/HKRK-B64/COS-7 cells; RG = co-transfected with negative-dominant Galpha-s; R0 = receptor alone plus GTPgammaS; also called hPTHR; human PTH receptor
- T1 sequence: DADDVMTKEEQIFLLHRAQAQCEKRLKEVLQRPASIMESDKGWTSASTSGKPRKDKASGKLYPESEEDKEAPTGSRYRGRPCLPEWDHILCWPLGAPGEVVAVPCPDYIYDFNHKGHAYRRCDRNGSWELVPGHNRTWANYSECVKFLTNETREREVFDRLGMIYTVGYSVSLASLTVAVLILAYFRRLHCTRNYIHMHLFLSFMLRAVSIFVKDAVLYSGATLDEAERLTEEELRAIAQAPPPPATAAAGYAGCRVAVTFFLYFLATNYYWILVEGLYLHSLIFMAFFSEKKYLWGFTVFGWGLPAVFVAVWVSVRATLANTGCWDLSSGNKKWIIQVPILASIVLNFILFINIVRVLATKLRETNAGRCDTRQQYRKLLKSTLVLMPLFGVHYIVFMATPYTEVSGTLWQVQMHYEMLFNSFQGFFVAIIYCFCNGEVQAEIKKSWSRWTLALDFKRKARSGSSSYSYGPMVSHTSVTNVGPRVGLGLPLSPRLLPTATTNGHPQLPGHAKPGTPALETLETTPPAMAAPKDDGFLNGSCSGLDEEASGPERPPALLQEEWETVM
- Assay remarks: competition radioligand binding, hPTHR R0 conformation
Ends that are not written are not given here.
Threshold 300 nM: IC50 strictly smaller gives Fulfilled, otherwise Not fulfilled.

>  <Binder>
AVSEHQLLHDKGKSIQDERRRAFLLKLIAE-NH2 (also called EALK-PTHrP(1-30)) [E18,A22,L25,K26-PTHrP(1-30)NH]

>  <Cat>
Not fulfilled

$$$$
>  <Binder>
AVSEHQLLHDKGKSIQDARRRAFLLKLIAE-NH2 [A18,22,L25,K26-PTHrP(1-30)NH]

>  <Cat>
Fulfilled

$$$$
>  <Binder>
AVSEHQLLHDKGKSIQDARRRAFLLKLI-NH2 (not fully specified, also called [Ala^18,22,Leu^25,Lys^26]-PTHrP(1-28); AALK-PTHrP(1-28)) [A18,22,L25,K26-PTHrP(1-28)NH]

>  <Cat>
Not fulfilled

$$$$
>  <Binder>
AVSEHQLLHDKGKSIQDERRRAFLLKLI-NH2 (also called EALK-PTHrP(1-28)) [E18,A22,L25,K26-PTHrP(1-28)NH]

>  <Cat>
Not fulfilled

$$$$
>  <Binder>
AVSEHQLLHDKGKSIQDARRRAFLHKLI-NH2 [A18,22,K26-PTHrP(1-28)NH]

>  <Cat>
Not fulfilled

$$$$

Turning now to a further record.
*Q* is_below(IC50, 300 nM) for AVSEHQLLHDKGKSIQDERRRAFLHKLI-NH2 [E18,A22,K26-PTHrP(1-28)NH] ?
*A* Not fulfilled

meta.source: patent US20110172153A1
